Source: patent US20250122160A1

Collected pIC50 values appear next to each entry.
TESTED TARGET: His tagged full-length PTPN1 protein (Homo sapiens)
Sequence (P18031 with tags, fused parts or gaps): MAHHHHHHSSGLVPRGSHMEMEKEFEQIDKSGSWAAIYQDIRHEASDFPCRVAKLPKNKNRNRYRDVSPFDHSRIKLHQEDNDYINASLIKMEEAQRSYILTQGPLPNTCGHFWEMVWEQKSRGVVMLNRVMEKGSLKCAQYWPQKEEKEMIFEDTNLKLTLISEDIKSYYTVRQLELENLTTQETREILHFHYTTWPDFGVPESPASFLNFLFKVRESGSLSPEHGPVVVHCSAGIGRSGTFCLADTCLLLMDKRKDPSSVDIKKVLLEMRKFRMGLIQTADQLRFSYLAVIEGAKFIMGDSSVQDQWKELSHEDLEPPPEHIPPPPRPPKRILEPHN
pIC50: −log10 of the molar value.

MOLECULE: COC(CN1CCc2cc(O)c(N3CC(=O)NS3(=O)=O)c(F)c2C1)C1CCCC1 (stereo not shown)
TESTED TARGET: His tagged full-length PTPN1 protein (Homo sapiens)
pIC50: 7.00 to 8.00

MOLECULE: O=C1CN(c2c(O)cc3c(c2F)CN(CCc2cncnc2)CC3)S(=O)(=O)N1
TESTED TARGET: His tagged full-length PTPN1 protein (Homo sapiens)
pIC50: 7.00 to 8.00

MOLECULE: CC(C)(C)OC(=O)N1CCc2cc(O)c(N3CC(=O)NS3(=O)=O)c(F)c2C1
TESTED TARGET: His tagged full-length PTPN1 protein (Homo sapiens)
pIC50: 8.00 to 9.00

MOLECULE: O=C1CN(c2c(O)cc3c(c2F)CN(c2ccccn2)CC3)S(=O)(=O)N1
TESTED TARGET: His tagged full-length PTPN1 protein (Homo sapiens)
pIC50: 7.00 to 8.00

MOLECULE: [2H]C1([2H])Cc2cc(O)c(N3CC(=O)NS3(=O)=O)c(F)c2C([2H])([2H])[C@]1([2H])NCCC(C)C (single isomer, unassigned)
TESTED TARGET: His tagged full-length PTPN1 protein (Homo sapiens)
pIC50: 8.00 to 9.00

MOLECULE: O=C1CN(c2c(O)cc3c(c2F)CN(C(=O)NCCC2CC2)CC3)S(=O)(=O)N1
TESTED TARGET: His tagged full-length PTPN1 protein (Homo sapiens)
pIC50: 7.00 to 8.00

MOLECULE: CC(C)(C)OC(=O)NCC1CCc2cc(O)c(N3CC(=O)NS3(=O)=O)c(F)c2C1 (stereo not shown)
TESTED TARGET: His tagged full-length PTPN1 protein (Homo sapiens)
pIC50: 7.00 to 8.00

MOLECULE: CC1=C(CCN2CCc3cc(O)c(N4CC(=O)NS4(=O)=O)c(F)c3C2)C(C)(C)CCC1
TESTED TARGET: His tagged full-length PTPN1 protein (Homo sapiens)
pIC50: 8.00 to 9.00

MOLECULE: Cc1nn(C)cc1CCN1CCc2cc(O)c(N3CC(=O)NS3(=O)=O)c(F)c2C1
TESTED TARGET: His tagged full-length PTPN1 protein (Homo sapiens)
pIC50: 8.00 to 9.00

MOLECULE: CC(C)(CO)CCN[C@@H]1CCc2cc(O)c(N3CC(=O)NS3(=O)=O)c(F)c2C1 (single isomer, unassigned)
TESTED TARGET: His tagged full-length PTPN1 protein (Homo sapiens)
pIC50: 8.00 to 9.00

MOLECULE: O=C1CN(c2c(O)cc3c(c2F)CN(CCC2CCNCC2)CC3)S(=O)(=O)N1
TESTED TARGET: His tagged full-length PTPN1 protein (Homo sapiens)
pIC50: 7.00 to 8.00

MOLECULE: O=C1CN(c2c(O)cc3c(c2F)C[C@H](NCC2CC2(F)F)CC3)S(=O)(=O)N1 (stereo partly shown)
TESTED TARGET: His tagged full-length PTPN1 protein (Homo sapiens)
pIC50: 7.00 to 8.00

MOLECULE: COCCNC(=O)N1CCc2cc(O)c(N3CC(=O)NS3(=O)=O)c(F)c2C1
TESTED TARGET: His tagged full-length PTPN1 protein (Homo sapiens)
pIC50: 7.00 to 8.00

MOLECULE: Cn1cccc1CN[C@@H]1CCc2cc(O)c(N3CC(=O)NS3(=O)=O)c(F)c2C1
TESTED TARGET: His tagged full-length PTPN1 protein (Homo sapiens)
pIC50: 7.00 to 8.00

MOLECULE: CC(C)CCN[C@H]1Cc2c(cc(O)c(N3CC(=O)NS3(=O)=O)c2F)C[C@H]1O
TESTED TARGET: His tagged full-length PTPN1 protein (Homo sapiens)
pIC50: 8.00 to 9.00

MOLECULE: C[C@@H]1C[C@@H](N)Cc2c1cc(O)c(N1CC(=O)NS1(=O)=O)c2F
TESTED TARGET: His tagged full-length PTPN1 protein (Homo sapiens)
pIC50: < 7.00
